Consider the following molecules and their measured % WU 0 DAA AM readings.
Test system: corn plants (variety NK OCTET)
Protocol Summary: Water use (WU) of corn plants after foliar spray
Assay type: in vivo
Measurement Conditions: foliar spray at 500 μM, vs negative control
Method: Compounds were tested for their effect on reducing plant water use as follows. The compounds were applied by foliar spray to 12 day old corn plants (variety NK OCTET) grown in controlled environment plant growth chambers. […] Plant water use during the day was assessed by repeated weighing of the pots in which the plants were grown before and after application of the compounds at the indicated times (expressed in days after application (DAA)). […]

[
  {
    "Molecule": "CCN1C(=O)CC(C)c2cc(NS(=O)(=O)Cc3ccc(C4CC4)cc3)cc(F)c21 (centres unmarked) [Compound 1.220]",
    "% WU 0 DAA AM": "−32.6%"
  },
  {
    "Molecule": "CCN1C(=O)CC(C)c2cc(NS(=O)(=O)Cc3ccc(C4CC4)cc3)ccc21 (centres unmarked) [Compound 1.178]",
    "% WU 0 DAA AM": "−18.5%"
  },
  {
    "Molecule": "CCCN1C(=O)CCc2cc(NS(=O)(=O)Cc3ccc(C4CC4)cc3)ccc21 [Compound 1.004]",
    "% WU 0 DAA AM": "−17.9%"
  },
  {
    "Molecule": "CCN1C(=O)CCc2cc(NS(=O)(=O)Cc3ccc(C4CC4)cc3)cc(F)c21 [Compound 1.213]",
    "% WU 0 DAA AM": "−18.2%"
  },
  {
    "Molecule": "CCCN1C(=O)CCc2cc(NS(=O)(=O)Cc3ccc(C4CCC4)cc3)ccc21 [Compound 5.004]",
    "% WU 0 DAA AM": "−8.9%"
  }
]

---

Hi! I'm sharing some IC50 results obtained with PYL2-HAB1 (Arabidopsis thaliana (Mouse-ear cress)).
Sequence (O80992 whole entry, looked up): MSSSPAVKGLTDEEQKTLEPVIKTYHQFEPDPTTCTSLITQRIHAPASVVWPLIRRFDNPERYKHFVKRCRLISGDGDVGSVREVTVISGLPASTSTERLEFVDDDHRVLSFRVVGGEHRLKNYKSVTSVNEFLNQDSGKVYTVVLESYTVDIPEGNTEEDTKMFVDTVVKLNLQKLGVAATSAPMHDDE
Sequence (Q9CAJ0 whole entry partner, looked up): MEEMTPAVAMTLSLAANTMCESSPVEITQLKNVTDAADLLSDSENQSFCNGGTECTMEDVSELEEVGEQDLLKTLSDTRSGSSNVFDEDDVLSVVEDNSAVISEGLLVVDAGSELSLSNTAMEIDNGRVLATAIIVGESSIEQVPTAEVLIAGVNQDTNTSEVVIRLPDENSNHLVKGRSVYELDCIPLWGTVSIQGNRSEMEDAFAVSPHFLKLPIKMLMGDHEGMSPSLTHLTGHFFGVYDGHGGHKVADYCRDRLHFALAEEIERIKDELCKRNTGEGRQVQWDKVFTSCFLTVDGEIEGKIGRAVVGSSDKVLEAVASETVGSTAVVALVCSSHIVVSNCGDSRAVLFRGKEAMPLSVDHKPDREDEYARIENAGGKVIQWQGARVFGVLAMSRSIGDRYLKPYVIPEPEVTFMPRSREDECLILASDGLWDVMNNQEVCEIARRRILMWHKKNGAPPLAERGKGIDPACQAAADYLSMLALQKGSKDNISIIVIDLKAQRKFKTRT

[
  {
    "Compound": "CCCN1C(=O)CCc2cc(NS(=O)(=O)Cc3ccc(C)cc3)ccc21 [Quinabactin, quinabactin, reference compound]",
    "Inequality Sign": "=",
    "IC50, nM": 262
  },
  {
    "Compound": "CCCN1C(=O)CCc2cc(NS(=O)(=O)Cc3ccc(C4CC4)cc3)cc(F)c21",
    "Inequality Sign": "=",
    "IC50, nM": 130
  },
  {
    "Compound": "CCCN1C(=O)CC(C)c2cc(NS(=O)(=O)Cc3ccc(C4CC4)cc3)ccc21 (centres unmarked)",
    "Inequality Sign": "=",
    "IC50, nM": 64
  },
  {
    "Compound": "CCN1C(=O)CCc2cc(NS(=O)(=O)Cc3ccc(C4CC4)cc3)cc(F)c21",
    "Inequality Sign": "=",
    "IC50, nM": 244
  },
  {
    "Compound": "CCCN1C(=O)CCc2cc(NS(=O)(=O)Cc3ccc(C4CC4)cc3)cc(Cl)c21",
    "Inequality Sign": "=",
    "IC50, nM": 114
  },
  {
    "Compound": "CCCN1C(=O)CCc2cc(NS(=O)(=O)Cc3ccc(C4CC4)cc3)ccc21",
    "Inequality Sign": "=",
    "IC50, nM": 177
  },
  {
    "Compound": "CCCN1C(=O)CCc2cc(NS(=O)(=O)Cc3ccc(C4CCCC4)cc3)ccc21",
    "Inequality Sign": ">",
    "IC50, nM": 1000
  },
  {
    "Compound": "CCN1C(=O)CC(C)c2cc(NS(=O)(=O)Cc3ccc(C4CC4)cc3)cc(F)c21 (centres unmarked)",
    "Inequality Sign": "=",
    "IC50, nM": 16
  }
]
